- tested.system: Plasma Kallikrein (Homo sapiens)
- assay.comment: Plasma kallikrein protease inhibition assay, purified enzyme
- Format: biochemical
- Parameters: NS0-derived Gly20-Ala638, with a C-terminal 60-His tag; 60-His (so in the source) (C); purchased R&D Systems 2497-SE; host or cells: Mouse myeloma cell line, NS0
- settings: 10 μM Z-FR-AMC substrate, 20-minute pre-incubation, pH 8.0/8.5, room temperature, read-out: Purified PKal IC50
outcome.measure: IC50

Record excerpt, results attached:
N#CCc1ccccc1Cn1cc(C(=O)NCc2ccc(C(=N)N)cc2)cn1 : 10 to 100 nM
N#Cc1ccn(Cc2ccc(Cn3cc(C(=O)NCc4ccc(C(=N)N)cc4)cn3)cc2)c1 : < 1 nM

Enquiry: What is its IC50 for Plasma Kallikrein (Homo sapiens)? Entry: "CN(C)C(=O)Cc1ccc(Cn2cc(C(=O)NCc3ccc(C(=N)N)cc3)cn2)cc1"
Return: < 1 nM

Enquiry: What is its IC50 for Plasma Kallikrein (Homo sapiens)? Entry: "CNC(=O)Cc1ccc(Cn2cc(C(=O)NCc3ccc(C(=N)N)c(F)c3)cn2)cc1"
Return: 1 to 10 nM

Enquiry: What is its IC50 for Plasma Kallikrein (Homo sapiens)? Entry: CC(C#N)c1ccc(Cn2cc(C(=O)NCc3ccc(C(=N)N)cc3)cn2)cc1 (centres unmarked)
Return: 1 to 10 nM

Enquiry: What is its IC50 for Plasma Kallikrein (Homo sapiens)? Entry: "N#CCc1ccc(Cc2cc(C(=O)NCc3ccc(C(=N)N)cc3)on2)cc1"
Return: 1 to 10 nM

Enquiry: What is its IC50 for Plasma Kallikrein (Homo sapiens)? Entry: "N#Cc1cccc(Cc2ccc(Cn3cc(C(=O)NCc4ccc(C(=N)N)c(F)c4)cn3)cc2)c1"
Return: < 1 nM

Enquiry: What is its IC50 for Plasma Kallikrein (Homo sapiens)? Entry: "N#CCc1ccc(Cn2cc(C(=O)NCc3ccc(C(=N)N)c(F)c3)cn2)cc1"
Return: 10 to 100 nM

Enquiry: What is its IC50 for Plasma Kallikrein (Homo sapiens)? Entry: "N#Cc1cccc(Cc2ccc(Cn3cc(C(=O)NCc4ccc(C(=N)N)cc4)cn3)cc2)c1"
Return: < 1 nM

Enquiry: What is its IC50 for Plasma Kallikrein (Homo sapiens)? Entry: "CCCc1c(C(=O)NCc2ccc(C(=N)N)cc2)ncn1Cc1ccc(C(C)(C)C#N)cc1"
Return: > 100 nM

Enquiry: What is its IC50 for Plasma Kallikrein (Homo sapiens)? Entry: "COCc1ccc(Cn2cc(C(=O)NCc3ccc(C(=N)N)cc3)cn2)cc1"
Return: < 1 nM

====

Recorded measurements of IC50, one per entry
- tested.system: Plasma Kallikrein (Homo sapiens, UniProt P03952)
- Sequence (P03952 391-638 limits assumed): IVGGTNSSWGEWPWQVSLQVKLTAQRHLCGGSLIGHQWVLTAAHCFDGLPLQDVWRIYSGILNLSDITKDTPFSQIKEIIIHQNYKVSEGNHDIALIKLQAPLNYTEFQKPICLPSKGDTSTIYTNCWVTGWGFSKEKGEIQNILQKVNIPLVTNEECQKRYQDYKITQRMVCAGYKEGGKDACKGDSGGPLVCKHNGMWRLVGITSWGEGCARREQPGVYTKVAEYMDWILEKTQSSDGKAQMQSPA
- Sequence (P03952 20-390 partner limits assumed): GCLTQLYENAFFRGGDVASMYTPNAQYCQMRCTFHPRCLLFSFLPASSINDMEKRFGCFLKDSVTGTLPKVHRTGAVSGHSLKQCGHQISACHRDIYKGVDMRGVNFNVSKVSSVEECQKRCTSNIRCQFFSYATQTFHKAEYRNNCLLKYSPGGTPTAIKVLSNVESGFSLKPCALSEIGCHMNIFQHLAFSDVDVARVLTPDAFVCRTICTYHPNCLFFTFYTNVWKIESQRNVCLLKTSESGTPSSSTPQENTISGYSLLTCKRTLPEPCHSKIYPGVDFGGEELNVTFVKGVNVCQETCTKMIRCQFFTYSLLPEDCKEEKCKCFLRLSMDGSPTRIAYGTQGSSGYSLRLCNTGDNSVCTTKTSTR
- assay.comment: Plasma kallikrein activity in pooled human plasma
- Type: biochemical
- Set-up: Plasma Kallikrein activity was also measured in pooled human plasma; from tissue; host or cells: pooled human plasma
- settings: Z-FR-AMC substrate, activated with 10% Actin FS solution, 10 minutes, read-out: Pooled Human Plasma PKal IC50
- Method: Plasma kallikrein protease inhibition assay. Two methods for determining the IC50 of a test compound against Plasma Kallikrein are provided. Second, Plasma Kallikrein activity was also measured in pooled human plasma. First, a 10% Actin FS solution was prepared in assay buffer. Each test compound was dissolved in DMSO and delivered to the reaction mixture along with Z-FR-AMC substrate and pooled human plasma. […] The fluorescence signal was recorded every 30 seconds for a total of 10 minutes.

N#CCc1ccccc1Cn1cc(C(=O)NCc2ccc(C(=N)N)cc2)cn1 : 100 to 1000 nM
CNC(=O)Cc1ccc(Cn2cc(C(=O)NCc3ccc(C(=N)N)c(F)c3)cn2)cc1 : 100 to 1000 nM
N#Cc1cccc(Cc2ccc(Cn3cc(C(=O)NCc4ccc(C(=N)N)cc4F)cn3)cc2)c1 : < 100 nM
N#Cc1cccc(Cc2ccc(Cn3cc(C(=O)NCc4ccc(C(=N)N)c(F)c4)cn3)cc2)c1 : 100 to 1000 nM
N#Cc1ccn(-c2ccc(Cn3cc(C(=O)NCc4ccc(C(=N)N)cc4)cn3)cc2)c1 : < 100 nM

Enquiry: # get_value(readout='IC50', item= "COCCc1ccc(Cn2ncc(C(=O)NCc3ccc(C(=N)N)cc3)c2COC)cc1" )
Return: < 100 nM

Enquiry: # get_value(readout='IC50', item= "CC(C)(C#N)c1ccc(Cn2ncc(C(=O)NCc3ccc(C(=N)N)cc3)c2C2CC2)cc1" )
Return: 100 to 1000 nM

Enquiry: # get_value(readout='IC50', item= "CCCc1c(C(=O)NCc2ccc(C(=N)N)cc2)ncn1Cc1ccc(C(C)(C)C#N)cc1" )
Return: > 1000 nM
